Test system: Calu-6 (Non-Small Cell Lung Carcinoma)
experimentNotes: combination Emax (second highest fraction inhibited in the dose matrix, 72 h); higher = more inhibition; extreme values may be limits of the assay
combination Emax listing for selected molecules.

molecule: CN(C)CCCOc1ccc(-c2ccc3ncc4c(c3c2)n(C2CCOCC2)c(=O)n4C)cn1 [AZD0156] + CCN(CCO)CCCOc1ccc2c(Nc3cc(CC(=O)Nc4cccc(F)c4)[nH]n3)ncnc2c1 [AZD2811] (first compound max 1 µM, 7x7, partner max 1 µM)
combination Emax: 0.328

molecule: CC1(C)CCC(CN2CCN(c3ccc(C(=O)NS(=O)(=O)c4ccc(NCC5CCOCC5)c([N+](=O)[O-])c4)c(Oc4cnc5[nH]ccc5c4)c3)CC2)=C(c2ccc(Cl)cc2)C1 [Venetoclax] + C1CN(CCC1(C(=O)N[C@@H](CCO)C2=CC=C(C=C2)Cl)N)C3=NC=NC4=C3C=CN4 [Capivasertib] (first compound max 1 µM, 7x7, partner max 3 µM)
combination Emax: 0.111

molecule: COc1cccc(OCCCN)c1-c1cc(Nc2cnc(C#N)cn2)n[nH]1 [Prexasertib] + CCc1c2c(nc3ccc(O)cc13)-c1cc3c(c(=O)n1C2)COC(=O)[C@]3(O)CC [SN-38] (first compound max 1 µM, 7x7, partner max 0.3 µM)
combination Emax: 0.862

molecule: NC1(C(=O)N[C@@H](CCO)c2ccc(Cl)cc2)CCN(c2ncnc3[nH]ccc23)CC1 [Capivasertib] + CCN(CCO)CCCOc1ccc2c(Nc3cc(CC(=O)Nc4cccc(F)c4)[nH]n3)ncnc2c1 [AZD2811] (first compound max 10 µM, 7x7, partner max 1 µM)
combination Emax: 0.413

molecule: Cn1cnc2c(F)c(Nc3ccc(Br)cc3Cl)c(C(=O)NOCCO)cc21 [Selumetinib] + C[C@@H]1COCCN1C2=NC(=NC(=C2)C3(CC3)[S@](=N)(=O)C)C4=C5C=CNC5=NC=C4 [AZD6738] (first compound max 10 µM, 7x7, partner max 10 µM)
combination Emax: 0.817

molecule: CN(C)CCCOc1ccc(-c2ccc3ncc4c(c3c2)n(C2CCOCC2)c(=O)n4C)cn1 [AZD0156] + C[C@@H]1COCCN1C2=NC(=NC(=C2)C3(CC3)[S@](=N)(=O)C)C4=C5C=CNC5=NC=C4 [AZD6738] (first compound max 1 µM, 7x7, partner max 10 µM)
combination Emax: 0.777

molecule: COc1cccc(OCCCN)c1-c1cc(Nc2cnc(C#N)cn2)n[nH]1 [Prexasertib] + C=CCn1c(=O)c2cnc(Nc3ccc(N4CCN(C)CC4)cc3)nc2n1-c1cccc(C(C)(C)O)n1 [AZD1775] (first compound max 1 µM, partner max 1 µM)
combination Emax: 0.806

molecule: Cc1cc2ncnn2cc1Nc1ncc2c(n1)n(C1CCOCC1)c(=O)n2C [AZD7648] + C=CCn1c(=O)c2cnc(Nc3ccc(N4CCN(C)CC4)cc3)nc2n1-c1cccc(C(C)(C)O)n1 [AZD1775] (first compound max 10 µM, partner max 1 µM)
combination Emax: 0.779

molecule: CCN(CCO)CCCOc1ccc2c(Nc3cc(CC(=O)Nc4cccc(F)c4)[nH]n3)ncnc2c1 [AZD2811] + C=CCn1c(=O)c2cnc(Nc3ccc(N4CCN(C)CC4)cc3)nc2n1-c1cccc(C(C)(C)O)n1 [AZD1775] (first compound max 1 µM, partner max 1 µM)
combination Emax: 0.727

molecule: CC(=O)c1c(C)c2cnc(Nc3ccc(N4CCNCC4)cn3)nc2n(C2CCCC2)c1=O [Palbociclib] + CC1(C)CCC(CN2CCN(c3ccc(C(=O)NS(=O)(=O)c4ccc(NCC5CCOCC5)c([N+](=O)[O-])c4)c(Oc4cnc5[nH]ccc5c4)c3)CC2)=C(c2ccc(Cl)cc2)C1 [Venetoclax] (first compound max 10 µM, 7x7, partner max 1 µM)
combination Emax: 0.353

molecule: COc1nnc2ccc(N3CCC(c4ccc(OCCN5CCN(C)C(=O)[C@H]5C)cc4)CC3)nn12 [AZD5153] + Cn1cnc2c(F)c(Nc3ccc(Br)cc3Cl)c(C(=O)NOCCO)cc21 [Selumetinib] (first compound max 1 µM, 7x7, partner max 10 µM)
combination Emax: 0.854

molecule: CC(=O)c1c(C)c2cnc(Nc3ccc(N4CCNCC4)cn3)nc2n(C2CCCC2)c1=O [Palbociclib] + Cn1cnc2c(F)c(Nc3ccc(Br)cc3Cl)c(C(=O)NOCCO)cc21 [Selumetinib] (first compound max 10 µM, 7x7, partner max 10 µM)
combination Emax: 0.707

molecule: Cc1cc2ncnn2cc1Nc1ncc2c(n1)n(C1CCOCC1)c(=O)n2C [AZD7648] + O=C(c1cc(Cc2n[nH]c(=O)c3ccccc23)ccc1F)N1CCN(C(=O)C2CC2)CC1 [Olaparib] (first compound max 10 µM, 7x7, partner max 10 µM)
combination Emax: 0.355

molecule: COc1cccc(OCCCN)c1-c1cc(Nc2cnc(C#N)cn2)n[nH]1 [Prexasertib] + C[C@@H]1COCCN1C2=NC(=NC(=C2)C3(CC3)[S@](=N)(=O)C)C4=C5C=CNC5=NC=C4 [AZD6738] (first compound max 1 µM, 7x7, partner max 10 µM)
combination Emax: 0.772
